- System: Mycobacterium tuberculosis
- testMethodNotes: Antimycobacterial activity against Mycobacterium tuberculosis H37Rv ATCC 27294 after 4 days by microplate Alamar blue assay
- Assay type: functional
- particulars: H37Rv ATCC 27294, 96 h
Parameter MIC: see the listing below.

smilesRepr	result
CCCN(CCC)C(=O)/C=C/C(=O)c1cccc(OC)c1	> 2 µg/mL
O=C(O)/C=C/C(=O)C1CCCCC1	> 4 µg/mL
O=C(O)/C=C/C(=O)c1ccc(OCc2ccccc2)cc1	> 4 µg/mL

Record O=C(O)/C=C/C(=O)c1ccco1 , field MIC: > 4 µg/mL

---

- System: Mycobacterium tuberculosis
- testMethodNotes: Antimycobacterial activity against Mycobacterium tuberculosis H37Rv ATCC 27294 after 4 days by microplate Alamar blue assay
- Type: functional
- particulars: H37Rv ATCC 27294, 96 h
readoutLabel: MIC

Mycobacterium tuberculosis MIC of COc1ccc(C(=O)/C=C/C(=O)OCCNC(=O)OC(C)(C)C)cc1 is > 4 µg/mL

Mycobacterium tuberculosis MIC of Cc1ccc(C(=O)/C=C/C(=O)OCCNC(=O)OC(C)(C)C)cc1 is > 4 µg/mL

Mycobacterium tuberculosis MIC of COC(=O)/C=C/C(=O)C1CC1 is > 4 µg/mL

Mycobacterium tuberculosis MIC of CN(C)C(=O)/C=C/C(=O)c1cccc([N+](=O)[O-])c1 is > 2 µg/mL

Mycobacterium tuberculosis MIC of COc1ccc(C(=O)/C=C/C(=O)O)cc1OC is > 4 µg/mL
